biological target: NEK3 (human) (UniProt P51956); experiment: radiometric filter-binding kinase assay, Kinase HotSpot; settings: compound 0.5 µM; ATP 10 µM
Sequence (P51956 whole entry, looked up): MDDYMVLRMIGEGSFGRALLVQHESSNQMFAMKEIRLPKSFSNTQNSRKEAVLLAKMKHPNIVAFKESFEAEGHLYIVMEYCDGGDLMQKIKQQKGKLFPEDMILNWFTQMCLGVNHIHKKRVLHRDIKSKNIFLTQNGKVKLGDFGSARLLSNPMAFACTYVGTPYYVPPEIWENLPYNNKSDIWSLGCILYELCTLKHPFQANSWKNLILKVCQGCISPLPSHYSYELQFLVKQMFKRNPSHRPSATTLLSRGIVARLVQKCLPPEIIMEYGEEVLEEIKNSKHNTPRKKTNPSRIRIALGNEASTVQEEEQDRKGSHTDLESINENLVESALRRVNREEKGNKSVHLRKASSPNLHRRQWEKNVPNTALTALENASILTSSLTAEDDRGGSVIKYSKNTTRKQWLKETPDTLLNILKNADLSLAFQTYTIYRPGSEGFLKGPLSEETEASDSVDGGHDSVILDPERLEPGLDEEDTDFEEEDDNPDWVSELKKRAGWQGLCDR
Readout name: residual activity (%)
Value expressed in %; do not type the unit.

// sample N#Cc1c[nH]c2c[nH]/c(=N\Cc3cccnc3)cc2/c1=N\c1ccc(F)c(Cl)c1 , its residual activity was 56

// sample C[C@@H]1CCN(C(=O)CC#N)C[C@@H]1N(C)c1ncnc2[nH]ccc12 , its residual activity was 94.5

// sample CO[C@@H]1[C@H](N(C)C(=O)c2ccccc2)C[C@H]2O[C@]1(C)n1c3ccccc3c3c4c(c5c6ccccc6n2c5c31)C(=O)NC4 , its residual activity was 107

// sample COc1cc2ncnc(Nc3ccc(OCc4ccccc4)cc3)c2cc1OC , its residual activity was 99.1

// sample Cc1cccc(-c2nc(C(C)(C)C)[nH]c2-c2ccc3c(c2)OCO3)n1 , its residual activity was 85.6

// sample CC(C)(C)c1cc(C=C(C#N)C#N)cc(Br)c1O , its residual activity was 96.6

// sample c1ccc2c(-c3ccncc3)c[nH]c2c1 , its residual activity was 91.6

// sample Cc1nc(-c2ccccc2)c(-c2ccncc2)o1 , its residual activity was 93.7

// sample Ic1cccc(CSc2nnc(-c3ccncc3)o2)c1 , its residual activity was 86.9

Measured values drawn from the kinase profiling compilation of Christmann-Franck et al. (2016) for this set.
